Sourced from patent US10035819B2

# TEST TARGET: Human PPARδ LBD (Homo sapiens, UniProt Q03181)
# Construct: (PPARδ amino acid 128 to C-terminus); expressed in transfected cells; host or cells: CV-1 cells
# Sequence (Q03181 128-441 limits assumed): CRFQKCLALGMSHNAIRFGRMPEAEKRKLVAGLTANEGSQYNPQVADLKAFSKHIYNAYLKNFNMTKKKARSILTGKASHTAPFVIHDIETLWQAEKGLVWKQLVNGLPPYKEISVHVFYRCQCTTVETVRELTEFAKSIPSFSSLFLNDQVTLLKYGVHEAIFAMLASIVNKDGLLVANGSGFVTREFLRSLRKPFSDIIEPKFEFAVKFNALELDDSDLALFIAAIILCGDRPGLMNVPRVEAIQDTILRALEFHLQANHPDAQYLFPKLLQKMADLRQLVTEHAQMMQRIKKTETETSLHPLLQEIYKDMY
# EXPERIMENT NOTES: PPARδ activity screen (GAL4-PPARδ LBD luciferase transactivation in CV-1 cells)
# Type: cell-based
# COND: Table 1; CV-1 cells, GAL4-PPARδ LBD luciferase reporter, compound 24 h; read-out: EC50
ATTRIBUTE MEASURED: EC50 (nM)
Respond numerically; units are nM and should not be typed.

Exercise: Provide the reported EC50 (system: Human PPARδ LBD (Homo sapiens, UniProt Q03181)) for `O=C(O)CCCCCOc1ccccc1CN(C(=O)c1ccc(-c2ccoc2)cc1)C1CCCC1`
Solution: 127

Exercise: Provide the reported EC50 (system: Human PPARδ LBD (Homo sapiens, UniProt Q03181)) for `CC(C)N(Cc1ccccc1OCCCCCC(=O)O)C(=O)c1ccc(-c2ccoc2)cc1`
Solution: 61

Exercise: Provide the reported EC50 (system: Human PPARδ LBD (Homo sapiens, UniProt Q03181)) for `CC(C)N(Cc1ccccc1OCCCCCC(=O)O)C(=O)c1ccc(-c2cn[nH]c2)cc1`
Solution: 710

Exercise: Provide the reported EC50 (system: Human PPARδ LBD (Homo sapiens, UniProt Q03181)) for `O=C(O)CCCCCOc1ccccc1CN(C(=O)c1ccc(-c2ccsc2)cc1)C1CC1`
Solution: 58.4

Exercise: Provide the reported EC50 (system: Human PPARδ LBD (Homo sapiens, UniProt Q03181)) for `O=C(O)CCCCCOc1ccccc1CN(C(=O)c1ccc(-c2ccsc2)cc1)C1CCCC1`
Solution: 29.3

Exercise: Provide the reported EC50 (system: Human PPARδ LBD (Homo sapiens, UniProt Q03181)) for `O=C(O)CCCCCOc1ccccc1CN(C(=O)c1ccc(-c2cccnc2)cc1)C1CCCC1`
Solution: 786

Exercise: Provide the reported EC50 (system: Human PPARδ LBD (Homo sapiens, UniProt Q03181)) for `CC(C)N(Cc1ccccc1OCCCCCC(=O)O)C(=O)c1ccc(-c2ccncc2)cc1`
Solution: 2860

Exercise: Provide the reported EC50 (system: Human PPARδ LBD (Homo sapiens, UniProt Q03181)) for `O=C(O)CCCCCOc1ccccc1CN(C(=O)c1ccc(-c2cccs2)cc1)C1CCCC1`
Solution: 753

Exercise: Provide the reported EC50 (system: Human PPARδ LBD (Homo sapiens, UniProt Q03181)) for `O=C(O)CCCCCOc1ccccc1CN(C(=O)c1ccc(-c2cn[nH]c2)cc1)C1CC1`
Solution: 2120

====

# EXPERIMENT NOTES: Pharmacokinetics in male Wistar rats (i.v. and p.o.)
# Type: in vivo
# COND: rat, po; male Wistar rats, 10 mg/Kg p.o., plasma
ATTRIBUTE MEASURED: Tmax (h)
Respond numerically; units are h and should not be typed.

Exercise: Provide one value: measured Tmax of Cc1cc(SCc2sc(-c3ccc(C(F)(F)F)cc3)nc2C)ccc1OCC(=O)O [GW501516]
Solution: 2

====

The entries below come with measured Tmax values attached.
# EXPERIMENT NOTES: Pharmacokinetics in male CD-1 mice (i.v. and p.o.)
# Format: in vivo
# COND: male, mouse, po; CD-1 mice, 10 mg/Kg p.o., plasma
Respond numerically; units are h and should not be typed.

smiles_string=Cc1cc(SCc2sc(-c3ccc(C(F)(F)F)cc3)nc2C)ccc1OCC(=O)O obs_value=2

Exercise: Provide one value: measured Tmax of `O=C(O)CCCCCOc1ccccc1CN(C(=O)c1ccc(-c2ccco2)cc1)C1CC1`
Solution: 0.5
